# Test summary: Steady-state clinical study: plasma levels of levosimendan and metabolite (II) after 7 days levosimendan administration
# Format: in vivo
# Condition details: human, po, 4 h after the last dose (day 7), 1 mg levosimendan orally three times a day for 7 days, healthy volunteers, formulation as Formulation 3 except 1 mg levosimendan and Avicel PH-200 51.0 mg, N 14, read-out: Mean plasma level of levosimendan (day 7)
# Protocol: The steady-state plasma level for metabolite (II) can be measured for any composition by administering the composition of levosimendan to a volunteer or group of volunteers once or several times a day for several days until a steady state level of (II) is reached. The plasma levels of the active metabolite (II) can then be measured according to the procedure described in detail in Example 2. The active metabolite (II) is added in 20 μl of phosphate buffer, pH 7.2 to 0.5 ml of analyte-free plasma. […]
Metric name: concentration at 4 h (ng/mL)
Report only the number, with the unit ng/mL understood.

What does the data say about its concentration at 4 h? Entry: CC1CC(=O)NN=C1c1ccc(NN=C(C#N)C#N)cc1 (single isomer, unassigned; (-))
8.9
